A collection of compounds and their measured viability
Test: growth suppression of beta-catenin knockout HCT116, pilot screen, human colon tumor cells (AID 823);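 further: 0% = wells killed by 20 µM Hyamine and 100% = untreated DMSO cell wells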
Settings: CellTiter-Glo, 60 h, at 10 µM, stronger effect = lower value
Inconclusive results are not listed.
experimental readout: viability (%)

                                   compound  experimental_readout  numeric_readout
0           CNc1nc(SCC(=O)OC)nc(N2CCOCC2)n1             viability             93.9
1  O=C(O)c1ccc(NS(=O)(=O)c2ccc3c(c2)OCCO3)cc1             viability              107
2  COc1ccc(N=C2SC(C(=O)O)CC(=O)N2C)cc1 (stereo unspecified)             viability             98.1
3  CCCCCn1c(N(C)Cc2ccccc2)nc2c1c(=O)[nH]c(=O)n2C             viability               74
4  CN1CCN(C(=O)C2CCCCC2C(=O)O)CC1 (stereo unspecified)             viability             99.4
5   COc1ccc(NC(=O)CSc2nnc(-c3ccccn3)n2N)cc1             viability              101

###

Experiment: OD615 S. cerevisiae growth inhibition, permissive medium, pilot counter-assay, permissive growth control for S. cerevisiae lifespan shortening project (AID 705)
Conditions: OD615, 24 h, at 10 µM, stronger effect = higher value
experimental readout: growth inhibition (%)

>>> print(df.to_string())
                                    compound  numeric_readout
 0  COc1ccc(C2C(C(=O)N3CCCC3)c3cc(OC)c(OC)cc3C(=O)N2C)cc1OC (configuration not stated)            -6.69
 1  CCN(CC)C(=O)CN(Cc1ccccc1)S(=O)(=O)c1ccc(F)cc1            -8.49
 2  COc1ccc(-n2c(Cc3cc(=O)[nH]c(=O)[nH]3)nnc2SCC(=O)N2CCCC2)cc1            -4.92
 3       COc1cc(NC(=O)COc2ccc(F)cc2)nc(OC)n1             -2.6
 4                 Cc1cc(NC(=O)c2ccccc2)sc1C            -5.22
 5  CC1Cc2nc(SCC(=O)NCCc3ccccc3)n(C)c(=O)c2S1 (configuration not stated)            -11.5
 6  CC(C)NS(=O)(=O)c1ccc(CCC(=O)NCc2ccco2)cc1            -15.3
 7  CSc1cccc(NC(=O)CN(c2ccc(C)cc2C)S(C)(=O)=O)c1            -12.5
 8  N#CC1=C2SCN(Cc3ccccc3)CN2C(=O)CC1c1cccs1 (configuration not stated)             9.16
 9  COc1ccc(NC(=O)C2CCN(C(=O)c3ccccc3)CC2)c(OC)c1             9.86
10          CCCN1CCN(C(=O)Cn2ncc3ccccc32)CC1            -12.4
11  CCCc1nc(SCC(=O)NCc2ccc3c(c2)OCO3)c2c(=O)n(C)c(=O)n(C)c2n1             1.28
12           COc1ccc(NC(=O)NCCCN2CCCC2=O)cc1            -2.73
13      C(=N\c1nc2ccccc2n1Cc1ccccc1)/c1cccs1            -3.85
14  CC12C(=O)N(c3ccccn3)C(=O)C1C1C=CC2C1 (configuration not stated)            -13.3
15  CCOC(=O)C1CCN(C(=O)CN(c2cccc(OC)c2)S(=O)(=O)c2ccccc2)CC1            -4.73
16  COc1cc(NC(=O)CN2CC(c3ccccc3)CC2=O)cc(OC)c1 (configuration not stated)            -20.8

###

A collection of compounds and their measured RAM network inhibition
Assay: RAM signaling pathway blockade in yeast – S. cerevisiae, Pdr1DBD-CYC8 efflux-inhibited sensitized strain, primary screen (AID 1298);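 further: 0% = DMSO untreated cells without growth and 100% = 10 µM 1-NA-PP1 full growth; higher means more yeast growth rescued from 5-FOA killing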
Conditions: S. cerevisiae cbk1-as DSE1-URA3 strain, 5-FOA growth OD615, 2 d; at 50 µM; stronger effect = higher value
experimental readout: RAM network inhibition (%)

                                    compound  unit_symbol  numeric_readout
 0             CC(C)C(=O)N1CCN(c2ccccc2N)CC1            %             1.34
 1  CCOCCCNC(=O)C(c1ccc(Cl)cc1)N1CCN(C(=O)c2ccco2)CC1 (centres undefined)            %             5.86
 2              CCCCn1c(CNC(=O)CC)nc2ccccc21            %             1.89
 3  COc1ccc(C(C#N)Nc2ccccc2OC)cc1 (centres undefined)            %             2.51
 4  CCn1c(SCC(=O)Nc2nnc(C)s2)nc2c(c1=O)SC(C)C2 (centres undefined)            %             2.04
 5  CC1Cc2nc(SCC(=O)NCc3ccco3)n(-c3ccccc3)c(=O)c2S1 (centres undefined)            %             6.31
 6       Cc1coc2c(C)c3oc(=O)c4c(c3cc12)CCCC4            %             5.02
 7  CCOC(=O)N1CCN(C(=O)NC23CC4CC(CC(C4)C2)C3)CC1            %             3.57
 8  CCOc1ccc(N(CC(=O)N2CCCC2)S(=O)(=O)c2c(C)noc2C)cc1            %             10.7
 9                CC(=O)Nc1sc(N)nc1-c1ccccc1            %             3.89
10           O=C(NCc1ccc(Cl)c(Cl)c1)c1cccnc1            %             3.32
11  COc1ccc(NC(=O)c2cc3c(=O)n(C)c4ccccc4c3n2C)cc1OC            %             5.74
12  COc1ccc(CCNC(=O)Cc2cc(=O)[nH]c(=O)[nH]2)cc1OC            %             1.23
13       O=S(=O)(NCc1cccnc1)c1ccc(Cl)c(Cl)c1            %             4.18
14  O=C(NCCN1CCOCC1)c1ccc(CS(=O)(=O)c2c(Cl)cccc2Cl)o1            %             0.87
15  COc1ccc(-n2c3c(cc(C(=O)N4CCC(C)CC4)c2=O)C(=O)CC(C)(C)C3)cc1            %             0.25
16     OCCN1CCN(Cc2cccc(Oc3ccc(Cl)cc3)c2)CC1            %            -0.21
17                   CN(CCO)c1ncnc2nc[nH]c12            %             1.71
18  CCOC(=O)C1CCN(C(=O)CN(c2ccc(OC)c(OC)c2)S(=O)(=O)c2ccccc2)CC1            %             6.25
19  COc1ccc(NC(=O)Nc2ccc3c(c2)N(C)C(=O)CS3)cc1OC            %             5.75
20  CC(C)n1c(C(O)c2ccccc2)nc2ccccc21 (centres undefined)            %             4.24
21  CC1CN(S(=O)(=O)c2ccc(C(=O)Nc3sc4c(c3C(N)=O)CCN(C)C4)cc2)CC(C)O1 (centres undefined)            %              5.2
22  O=c1cc(O)c2c(=O)n(-c3ccccc3)c3ccccc3c2o1            %             0.42
23  CCCN1Cc2cccc(C(=O)Nc3ccc4c(c3)OCCO4)c2C1=O            %             2.75
24  COc1cc(Br)cc(-c2nc3c(c(=O)[nH]c(=O)n3Cc3ccccc3)n2C)c1O            %             3.23
25  CC(=O)c1c(C)[nH]c(C(=O)Nc2cc(C)ccc2C)c1C            %             1.74
26  CCN1CCN(C(=O)c2cc3c(s2)-c2ccccc2S(=O)(=O)C3)CC1            %             0.72
27  COc1ccc(N2C(=O)CC(NCc3cccc(F)c3)C2=O)cc1 (centres undefined)            %             5.38
28  O=C(Nc1ccc(Oc2ccccc2)cc1)c1cnc2n(c1=O)CCS2            %              8.2
29                       Cc1ccnc(SCC(=O)O)n1            %             1.08
30  COc1cc(NS(=O)(=O)c2ccc(NC(=O)C34CC5CC(CC(C5)C3)C4)cc2)ncn1            %             8.43
31  Cn1c(=O)c2nc(-c3ccc(Cl)cc3Cl)oc2c2ccccc21            %             3.74
32  COc1ccc(C2NC(=O)NC(O)(C(F)(F)F)C2C(=O)c2ccc(C)cc2)cc1 (centres undefined)            %            -1.03
33  O=C(CN(Cc1ccccc1F)S(=O)(=O)c1ccc(Cl)cc1)NCCCO            %             1.84
